Values were extracted from paper PMC3574212.

Tgt: EPAC2 (Mus musculus)
Test: 8-NBD-cAMP competition binding assay
Condition: 8-NBD-cAMP competition
Measurement Type: EPAC2 inhibitory activity (in words)

Cc1cc(C)c(S(=O)(=O)n2ccc3cccnc32)c(C)c1 [Compound 24d]: almost retained activity
Cc1cc(C)c(S(=O)(=O)n2ccc3ccccc32)c(C)c1 [Compound 22a]: almost retained activity

###

Tgt: EPAC2 (Mus musculus, UniProt Q9EQZ6)
Sequence (Q9EQZ6 whole entry): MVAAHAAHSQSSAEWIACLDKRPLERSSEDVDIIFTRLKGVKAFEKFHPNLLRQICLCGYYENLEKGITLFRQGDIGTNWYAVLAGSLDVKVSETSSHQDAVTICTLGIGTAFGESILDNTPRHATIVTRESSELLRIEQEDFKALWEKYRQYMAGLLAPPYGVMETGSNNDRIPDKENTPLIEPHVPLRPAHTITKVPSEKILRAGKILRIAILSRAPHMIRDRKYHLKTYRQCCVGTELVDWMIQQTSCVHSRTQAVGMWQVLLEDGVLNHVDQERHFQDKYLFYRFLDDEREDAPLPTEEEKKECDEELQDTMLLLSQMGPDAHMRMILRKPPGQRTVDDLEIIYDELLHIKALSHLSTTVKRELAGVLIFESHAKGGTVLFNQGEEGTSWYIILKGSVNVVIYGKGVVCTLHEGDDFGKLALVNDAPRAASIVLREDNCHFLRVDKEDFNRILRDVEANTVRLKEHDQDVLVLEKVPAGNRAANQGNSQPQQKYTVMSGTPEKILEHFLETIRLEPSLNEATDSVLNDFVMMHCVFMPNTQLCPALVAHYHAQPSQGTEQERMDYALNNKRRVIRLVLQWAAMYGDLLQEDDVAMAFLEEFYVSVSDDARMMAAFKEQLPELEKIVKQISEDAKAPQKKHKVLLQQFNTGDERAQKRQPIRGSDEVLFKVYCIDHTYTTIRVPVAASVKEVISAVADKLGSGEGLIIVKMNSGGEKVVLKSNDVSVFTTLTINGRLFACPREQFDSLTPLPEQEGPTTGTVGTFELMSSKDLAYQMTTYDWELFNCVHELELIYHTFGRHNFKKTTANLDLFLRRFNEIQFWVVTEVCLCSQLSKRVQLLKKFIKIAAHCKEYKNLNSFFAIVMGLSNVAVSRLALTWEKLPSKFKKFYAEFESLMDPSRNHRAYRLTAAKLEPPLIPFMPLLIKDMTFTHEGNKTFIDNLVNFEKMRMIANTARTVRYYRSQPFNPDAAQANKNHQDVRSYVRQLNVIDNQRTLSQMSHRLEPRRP
Test: 8-NBD-cAMP competition binding assay
Condition: RA = IC50, cAMP/ IC50, compound
Measurement Type: Relative Potency (RA)

Worked cases, answers included:
Cc1cc(C)c(Nc2nc(C)c(C)s2)c(C)c1: <0.13
Cc1cc(C)c(S(=O)(=O)c2ccc(OC3CCCCC3)cc2)c(C)c1 [Compound 11a]: <0.13

Here is another molecule to look at.
Query: Specify reported Relative Potency (RA) for the molecule shown: Cc1cc(C)c(S(=O)(=O)c2ccc(OC3CCN(C(=O)OC(C)(C)C)CC3)cc2)c(C)c1 [Compound 11b]
Reply: <0.13

###

Listed here: items and their measured Relative Potency (RA).
Tgt: EPAC2 (Mus musculus)
Test: 8-NBD-cAMP competition binding assay
Condition: RA = IC50, cAMP/ IC50, compound

Worked cases, answers included:
Cc1cc(C)c(S(=O)(=O)c2ccc(OCCN)cc2)c(C)c1 [Compound 11d]: <0.13
Cc1cc(C)c(S(=O)(=O)c2ccc(OC3CCNCC3)cc2)c(C)c1 [Compound 11c]: <0.13
Cc1cc(C)c(S(=O)(=O)c2ccc(-c3ccc(F)nc3)cc2)c(C)c1: <0.13
Cc1cc(C)c(S(=O)(=O)c2ccc(C3CCCCC3)cc2)c(C)c1: <0.13
COC(=O)c1ccc2c(ccn2S(=O)(=O)c2c(C)cc(C)cc2C)c1 [Compound 22b]: <0.13
CCCCCc1ccc(S(=O)(=O)c2c(C)cc(C)cc2C)cc1: <0.13
CCc1cccn1S(=O)(=O)c1ccc(C(F)(F)F)cc1 [Compound 20e]: <0.13
CCc1cccn1S(=O)(=O)c1ccc(C)cc1 [Compound 20b]: 10
Cc1cc(C)c(S(=O)(=O)n2ccc3ccccc32)c(C)c1 [Compound 22a]: 33.3

Here is another compound to look at.
Query: Specify reported Relative Potency (RA) for the compound shown: COc1ccc(S(=O)(=O)c2c(C)cc(C)cc2C)cc1
Reply: 21.1
